Tested on: OVCAR-5 ovarian
assay.comment: NCI tumour cell line growth inhibition, 48 h
recorded.endpoint: TGI

compound: Cc1cccc(Cl)c1NC(N)=S
recorded.endpoint: TGI
measured: > 100 µM
--
compound: COCOc1cc(OC)c(Br)cc1C/C(=N/O)C(=O)OC
recorded.endpoint: TGI
measured: > 100 µM
--
compound: O=S(Nc1ccccc1)c1ccc(-c2ccccc2)cc1 (stereo unspecified)
recorded.endpoint: TGI
measured: > 100 µM
--
compound: COc1ccc2[nH]c3c([N+](=O)[O-])ccc(Cl)c3c(=O)c2c1
recorded.endpoint: TGI
measured: > 58 µM
--
compound: Cc1c2cnccc2c(C)c2c1c1cc(C(=O)O)ccc1n2C
recorded.endpoint: TGI
measured: 9.52 µM
--
compound: NCCn1ccc(NC(c2ccccc2)(c2ccccc2)c2ccccc2)nc1=O
recorded.endpoint: TGI
measured: > 100 µM
